# Target desc: Nitric oxide synthase, inducible (Homo sapiens) (UniProt P35228)
# Sequence (P35228 whole entry): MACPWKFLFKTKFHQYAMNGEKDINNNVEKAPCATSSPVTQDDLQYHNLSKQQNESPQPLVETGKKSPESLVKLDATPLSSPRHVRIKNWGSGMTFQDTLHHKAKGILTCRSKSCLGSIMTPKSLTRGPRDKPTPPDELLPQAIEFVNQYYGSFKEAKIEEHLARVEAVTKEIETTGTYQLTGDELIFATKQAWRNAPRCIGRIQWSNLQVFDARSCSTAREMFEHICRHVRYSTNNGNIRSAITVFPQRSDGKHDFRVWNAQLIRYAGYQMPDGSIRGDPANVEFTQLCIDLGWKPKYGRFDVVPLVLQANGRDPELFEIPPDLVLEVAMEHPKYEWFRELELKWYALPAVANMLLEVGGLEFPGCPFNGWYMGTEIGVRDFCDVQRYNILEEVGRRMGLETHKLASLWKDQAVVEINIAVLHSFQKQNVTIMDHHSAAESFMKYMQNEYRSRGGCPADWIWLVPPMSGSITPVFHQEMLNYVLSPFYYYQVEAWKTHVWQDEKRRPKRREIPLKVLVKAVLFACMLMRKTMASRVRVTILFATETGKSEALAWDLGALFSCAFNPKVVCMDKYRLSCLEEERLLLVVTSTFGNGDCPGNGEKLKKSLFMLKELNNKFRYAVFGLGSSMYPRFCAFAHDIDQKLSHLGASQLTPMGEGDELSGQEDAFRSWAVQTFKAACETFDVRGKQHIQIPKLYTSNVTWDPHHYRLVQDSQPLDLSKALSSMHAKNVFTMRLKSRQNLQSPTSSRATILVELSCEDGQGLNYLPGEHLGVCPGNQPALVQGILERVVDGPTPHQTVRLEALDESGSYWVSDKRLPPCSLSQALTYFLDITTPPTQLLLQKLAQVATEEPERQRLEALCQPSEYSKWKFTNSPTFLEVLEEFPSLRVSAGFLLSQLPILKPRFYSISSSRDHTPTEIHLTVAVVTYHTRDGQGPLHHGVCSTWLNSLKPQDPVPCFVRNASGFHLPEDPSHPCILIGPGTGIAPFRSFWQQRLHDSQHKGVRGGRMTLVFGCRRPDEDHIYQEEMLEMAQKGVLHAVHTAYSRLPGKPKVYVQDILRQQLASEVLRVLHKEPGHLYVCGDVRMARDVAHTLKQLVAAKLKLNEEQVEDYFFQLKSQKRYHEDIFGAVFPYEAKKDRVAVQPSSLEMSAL
# Procedure text: Inhibitory activity against Inducible nitric oxide synthase
Measurement name: Inhibition
Answer format reminder: number followed by unit.

Example entries and their recorded answers appear below.
O=c1oc2ccc(CBr)cc2c2ccc([N+](=O)[O-])cc12    60 µM
Cc1ccc2oc(=O)c3cc(N)ccc3c2c1    150 µM
Nc1ccc2c(c1)c(=O)oc1ccc(CBr)cc12    110 µM

Next:
Incoming: Recall the recorded Inhibition for `O=[N+]([O-])c1cccc2cn[nH]c12` with Nitric oxide synthase, inducible (Homo sapiens) (UniProt P35228) and state it.
Outgoing: 15 µM
